- System Under Test: human mAChR M1 (Homo sapiens, UniProt P11229)
- Construct: host or cells: CHO-K1 cells (ATCC), stably transfected using Lipofectamine2000
- Sequence (P11229 1-460): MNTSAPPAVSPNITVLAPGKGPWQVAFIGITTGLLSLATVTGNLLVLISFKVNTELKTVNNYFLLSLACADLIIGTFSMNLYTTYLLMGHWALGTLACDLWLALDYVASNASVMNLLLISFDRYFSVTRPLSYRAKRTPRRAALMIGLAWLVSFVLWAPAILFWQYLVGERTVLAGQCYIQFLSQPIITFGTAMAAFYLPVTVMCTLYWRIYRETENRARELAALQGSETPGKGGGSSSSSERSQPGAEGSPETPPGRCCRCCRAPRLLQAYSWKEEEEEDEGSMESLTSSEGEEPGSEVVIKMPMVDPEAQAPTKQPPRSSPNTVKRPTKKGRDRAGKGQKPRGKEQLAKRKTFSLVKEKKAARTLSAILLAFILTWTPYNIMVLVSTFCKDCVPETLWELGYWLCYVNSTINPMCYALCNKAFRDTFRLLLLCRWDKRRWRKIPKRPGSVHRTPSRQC
- Measurement Notes: mAChR M1 cell-based functional assay (calcium mobilization), agonist activity upon compound addition
- Measurement Conditions: CHO-K1 cells expressing hM1; relative to the maximum for acetylcholine
Exam item: assign MET to entries whose Emax is below 20% and NOT MET to entries at or above 20%. Note that a value of exactly 20% receives NOT MET.

Known results for molecules:
• Cn1ccc(-c2ccc(Cn3cc(C(=O)NC4CC5(COC5)C4)c4occc4c3=O)c(F)c2)n1 = MET
• Cn1cc(-c2ccc(Cn3cc(C(=O)N[C@H]4CCC[C@@H]4O)c4nccn4c3=O)c(F)c2)cn1 = NOT MET
• Cc1ccc(-c2cc(F)c(Cn3cc(C(=O)N[C@H]4CCOC[C@@H]4O)c4ncccc4c3=O)c(F)c2)cn1 = MET
• Cn1cc(-c2ccc(Cn3cc(C(=O)N[C@H]4CCOC[C@@H]4O)c4ncccc4c3=O)c(F)c2)cn1 = NOT MET
• Cn1cc(-c2ccc(Cn3cc(C(=O)N[C@H]4CCOC[C@@H]4O)c4nccnc4c3=O)c(F)c2)cn1 = MET

Incoming: Please let me know if Cn1cc2c(-c3cc(F)c(Cn4cc(C(=O)N[C@H]5CCC[C@@H]5O)c5occc5c4=O)c(F)c3)cccc2n1 shows Emax below 20%.
Outgoing: MET

Incoming: Regarding Cn1cc2c(-c3cc(F)c(Cn4cc(C(=O)N[C@H]5CCCC[C@@H]5O)c5nccn5c4=O)c(F)c3)cccc2n1 , kindly confirm whether its Emax is beneath 20%.
Outgoing: NOT MET
